Reported TGI values for the following compounds.
Tested on: CCRF-CEM leukemia
Assay: NCI tumour cell line growth inhibition, 48 h
The response must be a number in µM with no trailing unit.

[[record]]
compound = "CC1(C)Cc2c(cnn2-c2ccc(C(F)(F)F)cc2)-c2nc(-c3ccc(O)cc3)[nH]c21"
measured_on = "CCRF-CEM leukemia"
endpoint_result = 11.2

[[record]]
compound = "COc1cccc(C2=C(c3cn(C)c4ccc(Cl)cc34)C(=O)NC2=O)c1"
measured_on = "CCRF-CEM leukemia"
endpoint_result = 15.7

[[record]]
compound = "CCC[CH2][Sn]1([CH2]CCC)[O]CC(CN2CCCCC2)[O]1 (stereo unspecified)"
measured_on = "CCRF-CEM leukemia"
endpoint_result = 0.6


[ask] Given the entry CN[C@@H](C)C(=O)N[C@H]1CCS[C@H]2CC(C)(C)[C@@H](C(=O)N[C@H]3c4ccccc4C[C@H]3OCC#CC#CCO[C@@H]3Cc4ccccc4[C@@H]3NC(=O)[C@H]3N4C(=O)[C@@H](NC(=O)[C@H](C)NC)CCS[C@H]4CC3(C)C)N2C1=O , what TGI was observed with CCRF-CEM leukemia?
[reply] 12.3

[ask] Given the entry COc1nc(N)c(N=O)c(OCc2ccccc2)n1 , what TGI was observed with CCRF-CEM leukemia?
[reply] 6.84

[ask] Given the entry C=CC(=O)N1CCN(CCCn2c(=O)c(-c3c(Cl)c(OC)cc(OC)c3Cl)cc3cnc(NC)nc32)CC1 , what TGI was observed with CCRF-CEM leukemia?
[reply] 11.9

[ask] Given the entry O=c1cc(-c2ccccc2)nc(-n2[nH]c3c(c2=O)CCCC3)[nH]1 , what TGI was observed with CCRF-CEM leukemia?
[reply] 35.8

[ask] Given the entry Clc1cc(OC23CC4CC(CC(C4)C2)C3)nc(Cl)n1 , what TGI was observed with CCRF-CEM leukemia?
[reply] 86.2

---

Test system: OVCAR-5 ovarian
Experiment: NCI tumour cell line growth inhibition, 48 h
MEASUREMENT NAME: TGI

[[record]]
compound = "COc1ccc(C(C)c2cc3c(cc2O)OCO3)cc1 (configuration not stated)"
endpoint_result = "45.2 µM"


[ask] Look up TGI: O=C1Nc2ccccc2/C1=C\c1c(-c2ccccc2)nc2ccccn12
[reply] > 100 µM

[ask] Look up TGI: Cc1cc(S(=O)(=O)n2cc[nH]c2=O)c(SCCCN(C)C)cc1Cl
[reply] > 100 µM

[ask] Look up TGI: CCCCCCc1cc2c(C)c(C)c(=O)oc2cc1OCCCOc1cc2oc(=O)c(C)c(C)c2cc1CCCCCC
[reply] > 100 µM

---

Tested on: SNB-75 CNS
Assay: NCI tumour cell line growth inhibition, 48 h
MEASUREMENT NAME: TGI (µM)
The response must be a number in µM with no trailing unit.

Below, 3 compounds whose answers are already recorded.
[[record]]
compound = "O=C1C[C@@H](Sc2ccccc2)C2(OCCO2)C2ON3CCCC[C@H]3[C@H]12 (some centres undefined)"
endpoint_result = 29.9

[[record]]
compound = "C=CC(=O)N1CCN(CCCn2c(=O)c(-c3c(Cl)c(OC)cc(OC)c3Cl)cc3cnc(NC)nc32)CC1"
endpoint_result = 9.36

[[record]]
compound = "O=C(Nc1ncc(Cc2ccccc2)s1)c1sc2ccccc2c1Cl"
endpoint_result = 12.9


Now, please, on to the next compound.
[ask] Look up TGI: Oc1c(Br)cc(Br)c2ccc(Cn3cc(-c4ccc(C(F)(F)F)cc4)nn3)nc12
[reply] 8.04

---

System: NCI-H460 lung
Assay: NCI tumour cell line growth inhibition, 48 h
Reported TGI values for the following compounds.

Below, 4 compounds whose answers are already recorded.
[[record]]
compound = "C=C1CC2(CC(c3ccccc3OC)OC(c3ccccc3OC)C2)OC1=O (stereo unspecified)"
endpoint_result = "17.7 µM"

[[record]]
compound = "C[C@]12CC[C@@H]3c4cc(Br)c(O)c(Br)c4CC[C@H]3[C@@H]1CC(Br)C2=O (stereo partly specified)"
endpoint_result = "18.8 µM"

[[record]]
compound = "NC(N)=NS(=O)(=O)c1ccc(NC(=O)c2cccc3c(=O)c4ccccc4[nH]c23)cc1"
endpoint_result = "> 100 µM"

[[record]]
compound = "CC/C=C\\C/C=C\\C/C=C\\CCCCCCCC(=O)OC"
endpoint_result = "> 100 µM"


[ask] Look up TGI: CC(C)(C)OC(=O)C1CCC/C1=N/Nc1ccc([N+](=O)[O-])cc1[N+](=O)[O-] (stereo unspecified)
[reply] > 100 µM

[ask] Look up TGI: N#CC1(Nc2ccc(Br)cc2)CCCC1
[reply] > 100 µM

[ask] Look up TGI: CCOC(=O)CCc1cccc2c1oc1c(CCNC(=O)OCC3c4ccccc4-c4ccccc43)cccc12
[reply] > 100 µM

[ask] Look up TGI: CCOC(=O)C1=C(C)NC(=O)NC1c1ccc(N(CCCl)CCCl)cc1Cl (stereo unspecified)
[reply] 25.6 µM

[ask] Look up TGI: COc1ccc(/C=C2/SC(c3ccc(Cl)cc3)N(NC(=O)CCCCCCCCC(=O)NN3C(=O)/C(=C\c4ccc(OC)c(OC)c4)SC3c3ccc(Cl)cc3)C2=O)cc1OC (stereo unspecified)
[reply] > 100 µM

[ask] Look up TGI: CCOc1ccc([Se][Se]c2ccc(OCC)cc2)cc1
[reply] > 100 µM

[ask] Look up TGI: O=C(/C=C/c1ccc(O)c(O)c1)OCCCOC(=O)/C=C/c1ccc(O)c(O)c1
[reply] > 100 µM

---

Tested on: SK-MEL-2 melanoma
Assay: NCI tumour cell line growth inhibition, 48 h
Assign class by TGI: not lower than 10 µM means criterion met; lower than 10 µM means criterion not met.

[[record]]
compound = "Oc1c(Br)cc(Br)c2ccc(Cn3cc(-c4ccc(C(F)(F)F)cc4)nn3)nc12"
class_assignment = "criterion not met"

[[record]]
compound = "CCOC(=O)C1OC(=O)CC1C1(C(=O)OCC)C=CC(=O)O1 (stereo not drawn)"
class_assignment = "criterion met"

[[record]]
compound = "O=C(/C=C/c1ccc(O)c(O)c1)OCCCOC(=O)/C=C/c1ccc(O)c(O)c1"
class_assignment = "criterion met"

[[record]]
compound = "COC(=O)C12C3C4(C(=O)OC)C1C1(C(=O)OC)C2C3(C(=O)OC)C41C(=O)N(C(C)C)C(C)C (stereo not drawn)"
class_assignment = "criterion met"

[[record]]
compound = "C=CC(=O)N1CCN(CCCn2c(=O)c(-c3c(Cl)c(OC)cc(OC)c3Cl)cc3cnc(NC)nc32)CC1"
class_assignment = "criterion not met"


Here is the next item to consider.
[ask] Check the entry O=C(Nc1ccc(Cl)cc1)c1cc2c(cc1Cl)SC(NNCCO)=NS2(=O)=O : does TGI equal or exceed 10 µM?
[reply] criterion met

---

Test system: DLD-1 colon
Assay: NCI tumour cell line growth inhibition, 48 h
Reported TGI values for the following molecules.

[[record]]
molecule = "Clc1ccc(-c2nnc3c4nnc(-c5ccc(Cl)cc5Cl)n4c4ccccc4n23)c(Cl)c1"
endpoint_result = "> 100 µM"

[[record]]
molecule = "O=C1CC[C@H](NC(=O)Cc2ccccc2)C(=O)N1"
endpoint_result = "> 1250 µM"

[[record]]
molecule = "[N-]=[N+]=Nc1cc(=O)n(-c2ccccc2)c2ccccc12"
endpoint_result = "> 100 µM"

[[record]]
molecule = "COc1ccc2[nH]c3c(C)c4ccncc4c(C)c3c2c1"
endpoint_result = "1.33 µM"

[[record]]
molecule = "CCOC(=O)CC[C@H](NC(=O)c1[nH]cnc1/N=N/N(C)C)C(=O)OCC"
endpoint_result = "> 100 µM"


[ask] Given the entry C[C@H](C(=O)C12CC3CC(CC(C3)C1)C2)[C@H](O)c1ccccc1 , what TGI was observed with DLD-1 colon?
[reply] > 100 µM

[ask] Given the entry O=C1C(=O)c2cc([N+](=O)[O-])ccc2-c2ccc([N+](=O)[O-])cc21 , what TGI was observed with DLD-1 colon?
[reply] 3.95 µM

[ask] Given the entry COc1ccc(C(=O)N2c3ccccc3N(C)n3cccc3C2CC(=O)O)cc1 (stereo not drawn) , what TGI was observed with DLD-1 colon?
[reply] > 100 µM

---

Reported GI50 values for the following compounds.
Test system: MALME-3M melanoma
Test: NCI tumour cell line growth inhibition, 48 h

[[record]]
compound = "CC[C@H](C)[C@H](NC(=O)c1ccccn1)C(=O)N(C)[C@H](C[C@@H](OC(C)=O)c1nc(C(=O)N[C@@H](Cc2ccccc2)C[C@H](C)C(=O)OC)cs1)C(C)C"
measured_on = "MALME-3M melanoma"
endpoint_result = "15.7 µM"

[[record]]
compound = "COc1ccc2cc(C#Cc3ccc(-n4c(/C=C/c5cc(OC)c(OC)c(OC)c5)nc5ccccc5c4=O)c(C)c3)ccc2c1"
measured_on = "MALME-3M melanoma"
endpoint_result = "42.6 µM"

[[record]]
compound = "O=C(c1ccc(Cl)c(Cl)c1)N1CCN(C(=O)c2ccc(Cl)c(Cl)c2)C1=S"
measured_on = "MALME-3M melanoma"
endpoint_result = "14.9 µM"

[[record]]
compound = "ClCc1ccccc1Cn1cnc2c(Cl)nc(Cl)nc21"
measured_on = "MALME-3M melanoma"
endpoint_result = "1.22 µM"


[ask] Look up GI50: COc1ccc(/C(C)=C(\c2ccc(Cl)cc2)c2ccc(OCCN3CCCCC3)cc2)cc1
[reply] 4.01 µM

[ask] Look up GI50: Nc1n[nH]c2cccc(C#Cc3cccc(NC(=O)c4ccc(N5CCOCC5)c(C(F)(F)F)c4)c3)c12
[reply] 0.54 µM

[ask] Look up GI50: C[CH2][Sn]([CH2]C)([O]C(=O)c1ccccc1F)[O]C(=O)c1ccccc1F
[reply] 16.5 µM

[ask] Look up GI50: OCCCCC#Cc1ccccc1C#Cc1ccccn1
[reply] 27.1 µM

[ask] Look up GI50: CCCCC(CCCCCC(CCCC)C1NC(C)Cc2cc(OC)c(OC)cc21)C1NC(C)Cc2cc(OC)c(OC)cc21 (stereo unspecified)
[reply] 1.9 µM

[ask] Look up GI50: Oc1c(Br)cc(Br)c2ccc(Cn3cc(-c4ccc(C(F)(F)F)cc4)nn3)nc12
[reply] 1.65 µM

[ask] Look up GI50: COc1cc(-c2nccn2-c2ccc3ccccc3c2)cc(OC)c1OC
[reply] 16 µM
